System: Enterococcus faecium
Assay: Antibacterial activity against Enterococcus faecium ATCC 49452 at 10 % serum
Assay type: functional
Conditions: ATCC 49452, Serum
Recorded metric: MIC (µg/mL)
Respond with the bare value in µg/mL.

// MIC value for `CCCCCCCCCC(=O)N[C@@H](Cc1c[nH]c2ccccc12)C(=O)N[C@H](CC(N)=O)C(=O)N[C@@H](CCO)C(=O)N[C@@H]1C(=O)NCC(=O)N[C@@H](CCCNCc2ccc(/C=C/C(=O)N3CCN(c4ccc(F)cc4)CC3)cc2)C(=O)N[C@@H](CC(=O)O)C(=O)N[C@H](C)C(=O)N[C@@H](CC(=O)O)C(=O)NCC(=O)N[C@H](CO)C(=O)N[C@@H]([C@H](C)CC(=O)O)C(=O)N[C@@H](CC(=O)c2ccccc2N)C(=O)O[C@@H]1C` : 12.5

###

System: Enterococcus faecalis
Test: Antibacterial activity against Enterococcus faecalis ATCC 6569
Type: functional
Recorded metric: MIC (µg/mL)
Give your result in µg/mL as a bare value.

[[record]]
molecule = "CCCCCCCCCC(=O)N[C@@H](Cc1c[nH]c2ccccc12)C(=O)N[C@H](CC(N)=O)C(=O)N[C@@H](CCO)C(=O)N[C@@H]1C(=O)NCC(=O)N[C@@H](CCCNC(=O)c2ccccc2S(=O)(=O)O)C(=O)N[C@@H](CC(=O)O)C(=O)N[C@H](C)C(=O)N[C@@H](CC(=O)O)C(=O)NCC(=O)N[C@H](CO)C(=O)N[C@@H]([C@H](C)CC(=O)O)C(=O)N[C@@H](CC(=O)c2ccccc2N)C(=O)O[C@@H]1C"
unit_of_measure = "µg/mL"
data_value = 100


Continue with the molecule presented below.
Item: CCCCCCCCCC(=O)N[C@@H](Cc1c[nH]c2ccccc12)C(=O)N[C@H](CC(N)=O)C(=O)N[C@@H](CCO)C(=O)N[C@@H]1C(=O)NCC(=O)N[C@@H](CCCNC(=O)C(N)Cc2c[nH]c3ccc(F)cc23)C(=O)N[C@@H](CC(=O)O)C(=O)N[C@H](C)C(=O)N[C@@H](CC(=O)O)C(=O)NCC(=O)N[C@H](CO)C(=O)N[C@@H]([C@H](C)CC(=O)O)C(=O)N[C@@H](CC(=O)c2ccccc2N)C(=O)O[C@@H]1C (some centres not stated) | MIC: 3.1

###

We begin with a simple list: items and their reported MIC.
System: Enterococcus faecalis
Assay: Antibacterial activity against Enterococcus faecalis ATCC 6569 at 10 % serum
Assay type: functional
Details: ATCC 6569, Serum
All answers are understood in µg/mL, so give the number only.

[[record]]
smiles_data = "CCCCCCCCCC(=O)N[C@@H](Cc1c[nH]c2ccccc12)C(=O)N[C@H](CC(N)=O)C(=O)N[C@@H](CCO)C(=O)N[C@@H]1C(=O)NCC(=O)N[C@@H](CCCNCc2ccc(/C=C/C(=O)N3CCN(c4ccc(F)cc4)CC3)cc2)C(=O)N[C@@H](CC(=O)O)C(=O)N[C@H](C)C(=O)N[C@@H](CC(=O)O)C(=O)NCC(=O)N[C@H](CO)C(=O)N[C@@H]([C@H](C)CC(=O)O)C(=O)N[C@@H](CC(=O)c2ccccc2N)C(=O)O[C@@H]1C"
data_value = 12.5

[[record]]
smiles_data = "CCCCCCCCCC(=O)N[C@@H](Cc1c[nH]c2ccccc12)C(=O)N[C@H](CC(N)=O)C(=O)N[C@@H](CCO)C(=O)N[C@@H]1C(=O)NCC(=O)N[C@@H](CCCNCc2ccc(C(=O)N3CCN(c4ccc(F)cc4)CC3)cc2)C(=O)N[C@@H](CC(=O)O)C(=O)N[C@H](C)C(=O)N[C@@H](CC(=O)O)C(=O)NCC(=O)N[C@H](CO)C(=O)N[C@@H]([C@H](C)CC(=O)O)C(=O)N[C@@H](CC(=O)c2ccccc2N)C(=O)O[C@@H]1C"
data_value = 6.25

[[record]]
smiles_data = "CCCCCCCCCC(=O)N[C@@H](Cc1c[nH]c2ccccc12)C(=O)N[C@H](CC(N)=O)C(=O)N[C@@H](CCO)C(=O)N[C@@H]1C(=O)NCC(=O)N[C@@H](CCCNCc2ccc3ccccc3n2)C(=O)N[C@@H](CC(=O)O)C(=O)N[C@H](C)C(=O)N[C@@H](CC(=O)O)C(=O)NCC(=O)N[C@H](CO)C(=O)N[C@@H]([C@H](C)CC(=O)O)C(=O)N[C@@H](CC(=O)c2ccccc2N)C(=O)O[C@@H]1C"
data_value = 12.5

[[record]]
smiles_data = "CCCCCCCCCC(=O)N[C@@H](Cc1c[nH]c2ccccc12)C(=O)N[C@H](CC(N)=O)C(=O)N[C@@H](CC(=O)O)C(=O)N[C@@H]1C(=O)NCC(=O)N[C@@H](CCCNCc2ccc(-c3ccccc3)cc2)C(=O)N[C@@H](CC(=O)O)C(=O)N[C@H](C)C(=O)N[C@@H](CC(=O)O)C(=O)NCC(=O)N[C@H](CO)C(=O)N[C@@H]([C@H](C)CC(=O)O)C(=O)N[C@@H](CC(=O)c2ccccc2N)C(=O)O[C@@H]1C"
data_value = 12.5

[[record]]
smiles_data = "CCCCCCCCCC(=O)N[C@@H](Cc1c[nH]c2ccccc12)C(=O)N[C@H](CC(N)=O)C(=O)N[C@@H](CCO)C(=O)N[C@@H]1C(=O)NCC(=O)N[C@@H](CCCNCc2ccccc2[N+](=O)[O-])C(=O)N[C@@H](CC(=O)O)C(=O)N[C@H](C)C(=O)N[C@@H](CC(=O)O)C(=O)NCC(=O)N[C@H](CO)C(=O)N[C@@H]([C@H](C)CC(=O)O)C(=O)N[C@@H](CC(=O)c2ccccc2N)C(=O)O[C@@H]1C"
data_value = 25

[[record]]
smiles_data = "CCCCCCCCCC(=O)N[C@@H](Cc1c[nH]c2ccccc12)C(=O)N[C@H](CC(N)=O)C(=O)N[C@@H](CCO)C(=O)N[C@@H]1C(=O)NCC(=O)N[C@@H](CCCNCc2ccc(N3CCN(Cc4ccccc4)CC3)cc2)C(=O)N[C@@H](CC(=O)O)C(=O)N[C@H](C)C(=O)N[C@@H](CC(=O)O)C(=O)NCC(=O)N[C@H](CO)C(=O)N[C@@H]([C@H](C)CC(=O)O)C(=O)N[C@@H](CC(=O)c2ccccc2N)C(=O)O[C@@H]1C"
data_value = 12.5

[[record]]
smiles_data = "CCCCCCCCCC(=O)N[C@@H](Cc1c[nH]c2ccccc12)C(=O)N[C@H](CC(N)=O)C(=O)N[C@@H](CCO)C(=O)N[C@@H]1C(=O)NCC(=O)N[C@@H](CCCNCc2ccc(S(=O)(=O)NCc3ccc(F)cc3)cc2)C(=O)N[C@@H](CC(=O)O)C(=O)N[C@H](C)C(=O)N[C@@H](CC(=O)O)C(=O)NCC(=O)N[C@H](CO)C(=O)N[C@@H]([C@H](C)CC(=O)O)C(=O)N[C@@H](CC(=O)c2ccccc2N)C(=O)O[C@@H]1C"
data_value = 3.13

[[record]]
smiles_data = "CCCCCCCCCC(=O)N[C@@H](Cc1c[nH]c2ccccc12)C(=O)N[C@H](CC(N)=O)C(=O)N[C@@H](CCO)C(=O)N[C@@H]1C(=O)NCC(=O)N[C@@H](CCCNCc2cc3ccccc3o2)C(=O)N[C@@H](CC(=O)O)C(=O)N[C@H](C)C(=O)N[C@@H](CC(=O)O)C(=O)NCC(=O)N[C@H](CO)C(=O)N[C@@H]([C@H](C)CC(=O)O)C(=O)N[C@@H](CC(=O)c2ccccc2N)C(=O)O[C@@H]1C"
data_value = 6.25

[[record]]
smiles_data = "CCCCCCCCCC(=O)N[C@@H](Cc1c[nH]c2ccccc12)C(=O)N[C@H](CC(N)=O)C(=O)N[C@@H](CCO)C(=O)N[C@@H]1C(=O)NCC(=O)N[C@@H](CCCNCc2ccc(OCc3ccccc3)cc2O)C(=O)N[C@@H](CC(=O)O)C(=O)N[C@H](C)C(=O)N[C@@H](CC(=O)O)C(=O)NCC(=O)N[C@H](CO)C(=O)N[C@@H]([C@H](C)CC(=O)O)C(=O)N[C@@H](CC(=O)c2ccccc2N)C(=O)O[C@@H]1C"
data_value = 50


Proceed to the following item.
The compound listed as `CCCCCCCCCC(=O)N[C@@H](Cc1c[nH]c2ccccc12)C(=O)N[C@H](CC(N)=O)C(=O)N[C@@H](CCO)C(=O)N[C@@H]1C(=O)NCC(=O)N[C@@H](CCCNCc2ccc(OCc3ccc(F)cc3)c([N+](=O)[O-])c2)C(=O)N[C@@H](CC(=O)O)C(=O)N[C@H](C)C(=O)N[C@@H](CC(=O)O)C(=O)NCC(=O)N[C@H](CO)C(=O)N[C@@H]([C@H](C)CC(=O)O)C(=O)N[C@@H](CC(=O)c2ccccc2N)C(=O)O[C@@H]1C` shows MIC equal to 12.5

###

System: Enterococcus faecium
Assay: Antibacterial activity against Enterococcus faecium ATCC 49452 at 0 % serum
Assay type: functional
Recorded metric: MIC (µg/mL)
Use µg/mL as the unit, but write only the number.

[[record]]
smiles_data = "CCCCCCCCCC(=O)N[C@@H](Cc1c[nH]c2ccccc12)C(=O)N[C@H](CC(N)=O)C(=O)N[C@@H](CCO)C(=O)N[C@@H]1C(=O)NCC(=O)N[C@@H](CCCNCc2ccccc2N)C(=O)N[C@@H](CC(=O)O)C(=O)N[C@H](C)C(=O)N[C@@H](CC(=O)O)C(=O)NCC(=O)N[C@H](CO)C(=O)N[C@@H]([C@H](C)CC(=O)O)C(=O)N[C@@H](CC(=O)c2ccccc2N)C(=O)O[C@@H]1C"
data_value = 6.25

[[record]]
smiles_data = "CCCCCCCCCC(=O)N[C@@H](Cc1c[nH]c2ccccc12)C(=O)N[C@H](CC(N)=O)C(=O)N[C@@H](CCO)C(=O)N[C@@H]1C(=O)NCC(=O)N[C@@H](CCCNCc2ccc(S(=O)(=O)NCc3ccc(F)cc3)cc2)C(=O)N[C@@H](CC(=O)O)C(=O)N[C@H](C)C(=O)N[C@@H](CC(=O)O)C(=O)NCC(=O)N[C@H](CO)C(=O)N[C@@H]([C@H](C)CC(=O)O)C(=O)N[C@@H](CC(=O)c2ccccc2N)C(=O)O[C@@H]1C"
data_value = 1.56

[[record]]
smiles_data = "CCCCCCCCCC(=O)N[C@@H](Cc1c[nH]c2ccccc12)C(=O)N[C@H](CC(N)=O)C(=O)N[C@@H](CCO)C(=O)N[C@@H]1C(=O)NCC(=O)N[C@@H](CCCNCc2ccc(S(=O)(=O)NCc3ccc(C(F)(F)F)cc3)cc2)C(=O)N[C@@H](CC(=O)O)C(=O)N[C@H](C)C(=O)N[C@@H](CC(=O)O)C(=O)NCC(=O)N[C@H](CO)C(=O)N[C@@H]([C@H](C)CC(=O)O)C(=O)N[C@@H](CC(=O)c2ccccc2N)C(=O)O[C@@H]1C"
data_value = 0.39

[[record]]
smiles_data = "CCCCCCCCCC(=O)N[C@@H](Cc1c[nH]c2ccccc12)C(=O)N[C@H](CC(N)=O)C(=O)N[C@@H](CCO)C(=O)N[C@@H]1C(=O)NCC(=O)N[C@@H](CCCNCc2ccc(OCc3ccccc3)cc2O)C(=O)N[C@@H](CC(=O)O)C(=O)N[C@H](C)C(=O)N[C@@H](CC(=O)O)C(=O)NCC(=O)N[C@H](CO)C(=O)N[C@@H]([C@H](C)CC(=O)O)C(=O)N[C@@H](CC(=O)c2ccccc2N)C(=O)O[C@@H]1C"
data_value = 6.25


Item: `CCCCCCCCCC(=O)N[C@@H](Cc1c[nH]c2ccccc12)C(=O)N[C@H](CC(N)=O)C(=O)N[C@@H](CCO)C(=O)N[C@@H]1C(=O)NCC(=O)N[C@@H](CCCNCc2ccc(OCc3ccccc3)cc2)C(=O)N[C@@H](CC(=O)O)C(=O)N[C@H](C)C(=O)N[C@@H](CC(=O)O)C(=O)NCC(=O)N[C@H](CO)C(=O)N[C@@H]([C@H](C)CC(=O)O)C(=O)N[C@@H](CC(=O)c2ccccc2N)C(=O)O[C@@H]1C` | MIC: 3.13
